Source listed as patent US20160264649A1.

# tested.on: HIV-1 PVO.4 Env (HIV-1)
# test.description: cell-based or functional assay
Entries annotated with measured IC50, TZM-bl pseudovirus neutralization

>  <binder>
1489_I13 (PG16) (TCN-120) (antibody, V domains shown) VH: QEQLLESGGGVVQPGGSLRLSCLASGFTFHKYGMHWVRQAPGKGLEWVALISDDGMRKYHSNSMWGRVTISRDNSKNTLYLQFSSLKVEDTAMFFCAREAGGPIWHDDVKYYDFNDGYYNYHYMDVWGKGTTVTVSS VL: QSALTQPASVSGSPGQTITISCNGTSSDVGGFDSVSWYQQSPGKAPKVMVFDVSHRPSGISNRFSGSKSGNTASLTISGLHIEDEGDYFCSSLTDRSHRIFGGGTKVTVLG

>  <IC50, TZM-bl pseudovirus neutralization>
20.6 µg/mL

$$$$
>  <binder>
1503_H05 (PG16) (TCN-119) (antibody, V domains shown) VH: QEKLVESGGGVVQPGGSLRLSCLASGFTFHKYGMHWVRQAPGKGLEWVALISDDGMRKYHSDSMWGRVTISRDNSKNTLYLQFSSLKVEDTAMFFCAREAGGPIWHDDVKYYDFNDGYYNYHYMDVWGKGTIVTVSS VL: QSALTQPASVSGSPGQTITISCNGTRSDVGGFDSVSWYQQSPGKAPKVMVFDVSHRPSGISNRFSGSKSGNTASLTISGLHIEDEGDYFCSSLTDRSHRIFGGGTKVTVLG

>  <IC50, TZM-bl pseudovirus neutralization>
11 µg/mL

$$$$
>  <binder>
1469_M23 (PG16) (TCN-118) (antibody, V domains shown) VH: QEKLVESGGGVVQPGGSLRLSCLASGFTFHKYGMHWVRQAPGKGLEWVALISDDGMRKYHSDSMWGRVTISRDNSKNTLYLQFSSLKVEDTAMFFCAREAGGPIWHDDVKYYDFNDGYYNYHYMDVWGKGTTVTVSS VL: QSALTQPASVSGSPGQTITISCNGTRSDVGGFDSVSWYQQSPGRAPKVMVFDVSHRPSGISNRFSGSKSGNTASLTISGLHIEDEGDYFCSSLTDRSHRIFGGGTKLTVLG

>  <IC50, TZM-bl pseudovirus neutralization>
21.2 µg/mL

$$$$
